In this section we review reported pest or weed control at 250 g/ha values for a set of compounds.
# Tested on: Avena fatua (AVEFA)
# method-description: Test 1 glasshouse assay, post-emergence herbicidal activity
# Format: in vivo
# condition-summary: 312 h, post-emergence (Example 1B Table 2), 250 g/ha, after 13 days, read-out: Percentage phytotoxicity AVEFA
Just the number please, in %, no unit attached.

Recorded results for 2 compounds are shown here.
{"compound": "C#CCC1CC(=O)C(c2c(C)cc(-c3ccc(Cl)cn3)cc2C)C1=O (stereo not drawn)", "test-target": "Avena fatua (AVEFA)", "value": 100}
{"compound": "C#CCC1CC(=O)C(c2c(Cl)cc(-c3ccc(F)cc3F)cc2OC)C1=O (stereo not drawn)", "test-target": "Avena fatua (AVEFA)", "value": 100}

Input C#CCC1CC(=O)C(c2c(C)cc(C#C)cc2C)C1=O (stereo not drawn) . Output pest or weed control at 250 g/ha: 100

The values you see were collected from patent US10375956B2.
